The origin of these recorded values is ChEMBL document CHEMBL2429812.

Field: Intrinsic activity. Provide a value for each of the compounds that follow.
target: Alpha-2B adrenergic receptor (Homo sapiens) (UniProt P18089); experiment: Agonist activity at human alpha2B AR assessed as intrinsic activity
Sequence (P18089 whole entry): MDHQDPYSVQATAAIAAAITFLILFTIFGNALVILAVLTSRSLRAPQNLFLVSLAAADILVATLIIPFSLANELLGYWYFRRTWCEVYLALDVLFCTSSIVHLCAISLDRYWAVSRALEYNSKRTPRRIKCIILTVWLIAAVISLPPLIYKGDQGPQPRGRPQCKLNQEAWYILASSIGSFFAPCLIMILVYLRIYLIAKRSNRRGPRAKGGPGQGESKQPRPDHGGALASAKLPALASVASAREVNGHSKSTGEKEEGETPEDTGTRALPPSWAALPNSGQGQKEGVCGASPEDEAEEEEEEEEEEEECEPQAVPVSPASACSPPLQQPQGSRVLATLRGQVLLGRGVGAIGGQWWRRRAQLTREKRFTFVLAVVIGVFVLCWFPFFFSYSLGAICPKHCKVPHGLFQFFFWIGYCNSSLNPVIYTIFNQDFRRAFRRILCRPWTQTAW

Enquiry: Need Intrinsic activity of CC(Oc1ccccc1Br)C1=NCCN1 (centres undefined) , thanks.
Return: 0.4

Enquiry: So what's the measured Intrinsic activity for this one? `C[C@H](Oc1ccccc1C1CC1)C1=NCCN1`
Return: 0.65

Enquiry: # lookup: Intrinsic activity of `C=CCc1ccccc1O[C@@H](C)C1=NCCN1`
Return: 0.65

Enquiry: Using the record for CC(Oc1ccccc1CC1CC1)C1=NCCN1 (centres undefined) , report its Intrinsic activity.
Return: 0.7

Enquiry: Requested read-out: Intrinsic activity. Entry: `C[C@H](Oc1ccccc1CC1CC1)C1=NCCN1`
Return: 0.7

Enquiry: Entry CC(Oc1ccccc1C1CC1)C1=NCCN1 (centres undefined) has what Intrinsic activity?
Return: 0.7

Enquiry: What does the data say about its Intrinsic activity? Entry: CCCc1ccccc1OC(C)C1=NCCN1 (centres undefined)
Return: 0.6

Enquiry: Need Intrinsic activity of `C[C@@H](Oc1ccccc1CC1CC1)C1=NCCN1` , thanks.
Return: 0.65

Enquiry: What value of Intrinsic activity has been reported for the following compound? CC(Oc1ccccc1OC1CC1)C1=NCCN1 (centres undefined)
Return: 0.6
